Data origin, for the record: patent EP4741389A1

For each record, write down the corresponding pIC50.
System: ZR-75-1 H3K23 Acetylation
protocol: Histone H3 acetylation assay (H3K23 acetylation in ZR-75-1 cells)
Assay type: cell-based
protocol-conditions: Homo sapiens, 72 hours incubation, Odyssey CLx fluorescence, read-out: ZR-75-1 H3K23 Acetylation Inhibition IC50
# pIC50 is unitless: minus log10 of the molar concentration; print number only

Query: pIC50 lookup needed for COc1ccc2c(c1S(=O)(=O)Nc1noc3cc(Cn4cccn4)c(F)cc13)OCCCO2 [Compound 12] , thanks.
Result: 8.35

Query: Another compound to look at: COc1ccc2c(c1S(=O)(=O)Nc1noc3cc(Cn4cccn4)c(OC)c(C)c13)OCC21CC1 [Compound 39]
Result: 7.63

Query: Another compound to look at: COc1cc2c(NS(=O)(=O)c3c(OC)ccc4c3OCCCO4)noc2cc1Cn1cccn1 [Compound 15]
Result: 8.96

Query: Another compound to look at: COc1cc2c(cc1S(=O)(=O)Nc1noc3cc(Cn4cccn4)cc(OC)c13)OCCOC2 [Compound 8]
Result: 7.99

Query: Another compound to look at: COc1ccc2c(c1S(=O)(=O)Nc1noc3cc(Cn4cccn4)cc(OC)c13)OCCCN2C [Compound 41]
Result: 7.69

Query: Another compound to look at: COc1ccc2c(c1S(=O)(=O)Nc1noc3cc(Cn4cccn4)c4c(c13)OCC4)OCCCO2 [Compound 35]
Result: 7.82

Query: Another compound to look at: COc1ccc2c(c1S(=O)(=O)Nc1noc3cc(Cn4cccn4)cc(OC)c13)OCCOC2 [Compound 10]
Result: 8.64

Query: Another compound to look at: COc1cc(Cn2cccn2)cc2onc(NS(=O)(=O)c3cccc4c3OCCCO4)c12 [Compound 1]
Result: 8.05

Query: Another compound to look at: COc1ccc2c(c1S(=O)(=O)Nc1noc3cc(Cn4cccn4)c(F)c(OC)c13)OCC21CC1 [Compound 31]
Result: 8.96

Query: Another compound to look at: COc1ccc2c(c1S(=O)(=O)Nc1noc3cc(Cn4cccn4)c(OC)c(C)c13)OCC1CC21 (stereo not shown) [Compound 40]
Result: 7.91

Query: Another compound to look at: COc1ccc2c(c1S(=O)(=O)Nc1noc3cc(Cn4cccn4)c(F)c(OC)c13)OCCCO2 [Compound 29]
Result: 8.34

Query: Another compound to look at: CCc1c(Cn2cccn2)cc2onc(NS(=O)(=O)c3c(OC)ccc4c3OCC43CC3)c2c1OC [Compound 28]
Result: 7.42

Query: Another compound to look at: COc1ccc2c(c1S(=O)(=O)Nc1noc3cc(Cn4cccn4)cc(OC)c13)OC[C@@H]1C[C@H]21 [Compound 5-P2]
Result: 9.30

Query: Another compound to look at: COc1ccc2c(c1S(=O)(=O)Nc1noc3cc(Cn4cccn4)cc(OC)c13)OCCCO2 [Compound 2]
Result: 8.29

Query: Another compound to look at: COc1ccc2c(c1S(=O)(=O)Nc1noc3cc(Oc4ccccn4)cc(OC)c13)OC[C@@H]1C[C@H]21 [Compound 48]
Result: 7.75

Query: Another compound to look at: COc1cc2c(cc1S(=O)(=O)Nc1noc3cc(Cn4cccn4)cc(OC)c13)C1CC1CO2 (stereo not shown) [Compound 6]
Result: 8.28
